# Test summary: method code SF-AS, from DOI: 10.1002/ardp.19893220504, PMID: 2569302
# Assay context: pH 7.4
Classify: Condition met when logD is strictly less than 3; Condition not met when logD is not.

Exam item: Please determine if COc1ccc2c(=O)c(C)c(-c3ccc(Cl)cc3)oc2c1CN(C)C is below 3 in terms of logD.
Marked response: Condition met

Exam item: Same question, COc1ccc2c(=O)c(C)c(-c3ccc(Cl)cc3)oc2c1CN1CCOCC1 this time
Marked response: Condition not met

Exam item: And for CCN(CC)Cc1c(OC)ccc2c(=O)c(C)c(-c3ccc(Cl)cc3)oc12 ?
Marked response: Condition met

Exam item: Try this compound too: COc1ccc2c(=O)c(C)c(-c3ccc(F)cc3)oc2c1CN1CCCC1
Marked response: Condition met

Exam item: One more compound: COc1ccc2c(=O)c(C)c(-c3ccccc3)oc2c1CN(C)C
Marked response: Condition met

Exam item: Again, but for COc1ccc2c(=O)c(C)c(-c3ccc(C)cc3)oc2c1CN(C)C
Marked response: Condition met

Exam item: Queued: COc1ccc2c(=O)c(C)c(-c3ccc([N+](=O)[O-])cc3)oc2c1CN1CCCCC1
Marked response: Condition met

Exam item: Also need COc1ccc2c(=O)c(C)c(-c3ccc(F)cc3)oc2c1CN1CCOCC1 , thanks.
Marked response: Condition not met

Exam item: Another: COc1ccc2c(=O)c(C)c(-c3ccccc3)oc2c1CN1CCOCC1
Marked response: Condition not met

Provenance of the data: the SangsterLogP compilation
